B1: library; a variant is named by its letters at N, in order (parent)
chain: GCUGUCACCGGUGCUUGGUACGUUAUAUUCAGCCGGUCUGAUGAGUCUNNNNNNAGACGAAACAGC

variants of: B1; assay: normalized RNA/DNA level without ligand (relative to sTRSVctl = 100) (log10 (% of sTRSVctl)); HEK293T overexpressing SLC46A1; higher = less ribozyme self-cleavage, higher mRNA level; settings: without (6R,S)-folinic acid; ligand present: no
Reported normalized RNA/DNA level without ligand (log10) values follow for various variants
Just the number.

Consider the following illustrative entries.
CUAGCG | 2.02
GAAUAG | 1.94
CUCUGA | 2.07

What the record says about `GCUUUC` : normalized RNA/DNA level without ligand (log10) is 2.01
